# ASSAYED SYSTEM: TEC (Homo sapiens, UniProt P42680)
# Sequence (P42680 whole entry): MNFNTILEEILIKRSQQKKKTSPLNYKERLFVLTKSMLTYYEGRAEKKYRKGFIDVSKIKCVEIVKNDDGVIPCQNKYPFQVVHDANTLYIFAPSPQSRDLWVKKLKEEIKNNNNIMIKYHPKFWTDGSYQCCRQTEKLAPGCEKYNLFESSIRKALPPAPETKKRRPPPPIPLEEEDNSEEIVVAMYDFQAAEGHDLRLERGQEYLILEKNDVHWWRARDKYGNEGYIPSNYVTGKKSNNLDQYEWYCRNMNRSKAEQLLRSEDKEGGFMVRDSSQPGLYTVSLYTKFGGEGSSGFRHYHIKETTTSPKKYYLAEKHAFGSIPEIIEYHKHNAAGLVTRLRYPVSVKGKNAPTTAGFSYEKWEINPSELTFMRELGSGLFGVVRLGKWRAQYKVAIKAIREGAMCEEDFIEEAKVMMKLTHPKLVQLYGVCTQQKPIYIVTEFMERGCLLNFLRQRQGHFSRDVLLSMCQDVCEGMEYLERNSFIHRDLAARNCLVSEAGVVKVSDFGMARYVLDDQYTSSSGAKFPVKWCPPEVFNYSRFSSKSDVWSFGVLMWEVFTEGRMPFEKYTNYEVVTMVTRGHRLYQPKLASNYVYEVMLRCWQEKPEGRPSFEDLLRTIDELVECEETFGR
# ASSAY OVERVIEW: Inhibition of a panel of kinases (in vitro HotSpot kinase assay, 33P-ATP, 1 μM ATP)
# Assay type: biochemical
# PARTICULARS: ratio of TEC IC50 to Btk IC50 (selectivity)
Quick list: TEC/Btk per entry.
Reply with the value as a number alone.

The cases that follow already have their TEC/Btk on record.
COMPOUND: OCc1ccc(-c2ccnc3[nH]nc(N[C@H]4CC[C@H](O)CC4)c23)cc1F [Compound 11]
TEC/Btk: 10

COMPOUND: CC(C)(C)n1cc(C(=O)NCc2ccc(-c3ccnc4[nH]nc(N[C@@H]5CCNC5)c34)cc2F)cn1 [Example 76]
TEC/Btk: 171

COMPOUND: CC(C)(C)c1cc(C(=O)NCc2ccc(-c3ccnc4[nH]nc(N[C@H]5CC[C@H](O)CC5)c34)cc2F)no1 [Compound 27]
TEC/Btk: 142

COMPOUND: CC(=O)N1CC[C@H](Nc2n[nH]c3nccc(-c4ccc(CNC(=O)c5noc(C(C)(C)C)n5)c(F)c4)c23)C1 [Example 92]
TEC/Btk: 505

COMPOUND: CC(C)(C)c1noc(C(=O)NCc2ccc(-c3ccnc4[nH]nc(N5CCC(NS(=O)(=O)C6CC6)CC5)c34)cc2F)n1 [Example 224]
TEC/Btk: 3121

# TEC/Btk of C=CC(=O)N[C@@H]1CCN(c2n[nH]c3nccc(-c4ccc(CNC(=O)c5noc(C(C)(C)C)n5)c(F)c4)c23)C1 [Example 102] = 305

Looking up C[C@@H](NC(=O)c1nc(C(C)(C)C)no1)c1ccc(-c2ccnc3[nH]nc(NC4CCCC4)c23)cc1 [Example 201] , I see its TEC/Btk listed as 818

// TEC/Btk lookup, compound = C[C@@H](NC(=O)c1nc(C(C)(C)C)no1)c1ccc(-c2ccnc3[nH]nc(C4=CCCN(C(=O)N(C)C)C4)c23)cc1 [Example 243] , result: 1339

The recorded TEC/Btk for C=CC(=O)N1CCC[C@H](Nc2n[nH]c3nccc(-c4ccc(CNC(=O)c5nc(C(C)(C)C)no5)c(F)c4)c23)C1 [Example 169] is 470

The compound identified as C=CC(=O)N1CC[C@@H](Nc2n[nH]c3nccc(-c4ccc(CNC(=O)c5nc(C(C)(C)C)no5)c(F)c4)c23)C1 [Example 83] registered its TEC/Btk at 493

* * *

# ASSAYED SYSTEM: TEC (Homo sapiens, UniProt P42680)
# ASSAY OVERVIEW: Inhibition of a panel of kinases (in vitro HotSpot kinase assay, 33P-ATP, 1 μM ATP)
# Type: biochemical
# PARTICULARS: ratio of TEC IC50 to Btk IC50 (selectivity)
Below, each entry is listed alongside its reported TEC/Btk.
// no unit string in output, number only

Study these solved cases before continuing.
SMILES: CC(=O)N1C[C@H](Nc2n[nH]c3nccc(-c4ccc(CNC(=O)c5noc(C(C)(C)C)n5)c(F)c4)c23)CC[C@@H]1C
TEC/Btk: 778

SMILES: CC(C)(C)c1nc(C(=O)NCc2ccc(-c3ccnc4[nH]nc(NC5CNC5)c34)cc2F)no1
TEC/Btk: 1018

SMILES: C[C@H]1CC[C@@H](Nc2n[nH]c3nccc(-c4ccc(CNC(=O)c5noc(C(C)(C)C)n5)c(F)c4)c23)CN1C(=O)C1CC1
TEC/Btk: 340

SMILES: CC(C)(C)c1cccc(C(=O)NCc2ccc(-c3ccnc4[nH]nc(N[C@@H]5CCNC5)c34)cc2F)c1
TEC/Btk: 4

SMILES: CC(C)(C)c1nc(C(=O)NCc2ccc(-c3ccnc4[nH]nc(N[C@H]5CCN(C=O)C5)c34)cc2F)no1
TEC/Btk: 322

SMILES: C=CC(=O)N1CC[C@@H](Nc2n[nH]c3nccc(-c4ccc(CNC(=O)c5ccc(C(F)(F)F)cc5)c(F)c4)c23)C1
TEC/Btk: 81

Entry C=CC(=O)N1CC[C@@H](Nc2n[nH]c3nccc(-c4cccc(NC(=O)c5ccc(C(C)(C)C)cc5)c4)c23)C1 , TEC/Btk reported as 092
